# System Name: 6-phosphogluconate dehydrogenase, decarboxylating (Homo sapiens)
# Procedure Summary: 6PGD enzyme inhibitors, primary screen, biochemical, human, recombinant enzyme, NADPH absorbance (AID 1159550)
# Conditions Used: recombinant 6PGD, NADPH absorbance 341 nm; at 10 µM; hits give high values
Property Measured: inhibition (%)
State the answer as a number, implicitly in %.

Q: Give its inhibition value. Item: CC1(O)CC2C(CC1O)C2(C)C (stereo unspecified)
A: 13.8

Q: Given the compound CCCCCCCCCCCCC(C(=O)O)C(C)C(=O)O (stereo unspecified) , what is its reported inhibition?
A: -10.3

Q: Would you kindly share the measured inhibition for `COc1ccc2c(c1)OCc1c-2oc2cc(OC)ccc12` ?
A: 2.98

Q: Entry under review: `Cc1ccc2c(c1)CC[C@H]1CC(=O)CC[C@]21C` . Reported inhibition?
A: -2.97

Q: Consider the compound shown here: Nc1ccccc1C(=O)CC(N)C(=O)O (stereo unspecified) What is its recorded inhibition?
A: -2.44

Q: Give its inhibition value. Item: CC1(C(=O)O)CCC2(C)CCC3(C)C(=CC(=O)C4C5(C)CCC(OC(=O)CCC(=O)O)C(C)(C)C5CCC43C)C2C1 (stereo unspecified)
A: 6.14

Q: Fill in: inhibition of `CC(C)CCC[C@@H](C)[C@H]1CC[C@H]2[C@@H]3CC=C4C[C@@H](O)CC[C@]4(C)[C@H]3CC[C@]12C` is ___
A: 2.5

Q: // lookup inhibition for `COc1cc2c(cc1OC)[C@@H]1C(=O)c3ccc4c(c3O[C@@H]1CO2)C=CC(C)(C)O4`
A: -0.416

Q: Which measured inhibition value corresponds to `CC(=O)/C(=C\c1ccccc1)CC(=O)O` ?
A: 3.72

Q: Looking for the measured inhibition of `COc1cc(O)c2c(=O)cc(-c3ccc(OC)c(-c4c(O)cc(O)c5c(=O)cc(-c6ccc(O)cc6)oc45)c3)oc2c1` , can you help?
A: -1.48

Q: inhibition lookup needed for CC(=O)O[C@H]1CC[C@]2(C)C3=CC(=O)[C@@]4(C)C(C[C@@H]5OC6(OCC(C)CC6Br)C(C)[C@@H]54)C3CC[C@H]2C1 (stereo partly specified) , thanks.
A: 6.67

Q: Which measured inhibition value corresponds to CC(=O)OCC1(O)CC23CCC4c5ccoc5CCC4(C)C2CCC1C3 (stereo unspecified) ?
A: 4.27

Q: GET /values?readout=inhibition&item= `C#C[C@]1(O)CC[C@H]2[C@@H]3CCC4=C(CCC(=O)C4)[C@H]3CC[C@@]21C`
A: -2.85

Q: Could you share which inhibition value was measured for `NCCCCCCNS(=O)(=O)c1cccc2c(Cl)cccc12` ?
A: 8.63

Q: Dear colleague, I am looking for the recorded inhibition of the following compound: CC(=O)Oc1ccc2c(c1OC(C)=O)OCC1(O)Cc3c(cc(OC(C)=O)c(OC(C)=O)c3OC(C)=O)C21 (stereo unspecified)
A: 18.4

Q: // query inhibition value for entry COC(=O)[C@]1(C)CCC[C@]2(C)c3ccc(C(C)C)cc3C(=O)CC12 (stereo partly specified)
A: 13.7

Q: // query inhibition value for entry `COc1cc(-c2coc3cc(OCc4ccccc4)c(OC)c(O)c3c2=O)cc(OCc2ccccc2)c1OC`
A: 16.5

Q: Any idea what inhibition was measured for `Cc1c(C)c2c(c(C)c1O)CC[C@@](C)(CCC[C@H](C)CCC[C@H](C)CCCC(C)C)O2` ?
A: -20.7

Q: Which inhibition reading was recorded for the compound `COc1cc2ccc(=O)oc2cc1O` ?
A: -1.14

Q: Request the reported inhibition associated with CC(CN(C)C)CN1c2ccccc2Sc2ccccc21 (stereo unspecified)
A: 3.47

Q: Value lookup for inhibition; key = CN(C)CCC(c1ccc(Cl)cc1)c1ccccn1 (stereo unspecified)
A: 14.7
